Protocol Notes: Tmax in ICR mouse at 25 mg/kg, ip measured upto 24 hrs by LC-MS/MS analysis
Format: ADME, organism-based
Condition: in vivo
Can you tell me Tmax for the items I'm about to list?
Answers are plain numbers, in h.

COc1c(C)cnc(Cn2cnc3c(NCCOCCOCCOCCn4cc(COc5ccc(N(C(=O)CCl)C(C(=O)NCCc6ccccc6)c6cccs6)cc5Cl)nn4)nc(N)nc32)c1C (configuration not stated); 2

Now consider the entry below.
Can you share its Tmax? I mean this compound: COc1c(C)cnc(Cn2cnc3c(NCCC4CCN(C(=O)Cn5cc(COc6ccc(N(C(=O)CCl)C(C(=O)NCCc7ccccc7)c7cccs7)cc6Cl)nn5)CC4)nc(N)nc32)c1C (configuration not stated)
2

Recorded values, source ChEMBL document CHEMBL5608234.
